TGI: recorded values
# System: NCI/ADR-RES ovarian
# EXPERIMENT_DESCRIPTION: NCI tumour cell line growth inhibition, 48 h
Where a SMILES comes first, the peptide text is derived from it. Bridges are numbered along the chain shown (N, C = ends). [ ]: non-standard residue; d: D form. The star is where a group is joined. ξ: configuration not given here. X26 = O=C(/C=C/C=C/C=C/C=C/C=C/C(=O)*)NC1=C(O)CCC1=O; NMeA = CN[C@@H](C)C(=O)O; ξF = NC(Cc1ccccc1)C(=O)O; ξA = CC(N)C(=O)O

// solved cases for TGI follow
Could you tell me which TGI is on file for CC1NC(=O)[C@H](C)N(C)C(=O)[C@@H]2CCCN2C(=O)[C@@H](NC(=O)C(Cc2ccccc2)NC(=O)/C=C/C=C/C=C/C=C/C=C/C(=O)NC2=C(O)CCC2=O)COC(=O)[C@@H]2CCCN2C1=O (some centres undefined) (X26-[ξF]SP[NMeA][ξA]P; ester 2-C) ?
> 100 µM

Could you tell me which TGI is on file for Cc1cc(-c2nc3ccccc3s2)ccc1NC(=O)[C@@H](N)CCCCN ?
36.5 µM

Could you tell me which TGI is on file for Cc1ccc(CC[P+](=O)CCc2ccc(C)nc2)cn1 ?
> 100 µM

New cases:
Could you tell me which TGI is on file for O=C(Oc1cc(=O)c(OC(=O)c2ccccc2)co1)c1ccccc1 ?
> 100 µM

---

TGI: recorded values
# System: NCI-H23 lung
# EXPERIMENT_DESCRIPTION: NCI tumour cell line growth inhibition, 48 h

Query TGI on NCI-H23 lung for NC(=O)C(=O)CC(=O)c1ccccc1NC1=CC(=O)C(=O)c2ccccc21
> 100 µM

---

# Tested on: OVCAR-4 ovarian
# EXPERIMENT_DESCRIPTION: NCI tumour cell line growth inhibition, 48 h
TGI: recorded values

// solved cases for TGI follow
Could you tell me which TGI is on file for O=C(NC(COC(=O)C(Cc1ccccc1)NC(=O)c1ccccc1)Cc1ccccc1)c1ccccc1 (stereo not drawn) ?
> 50 µM

Could you tell me which TGI is on file for O=C(NCCCN(CCCCN(CCCNC(=O)C(F)(F)F)Cc1ccc2ccccc2c1)Cc1ccc2ccccc2c1)C(F)(F)F ?
> 100 µM

Moving on to the next compound.
Could you tell me which TGI is on file for N#CCc1nc(-c2ccccc2)n[nH]1 ?
> 100 µM

---

# Test system: PC-3 prostate
# EXPERIMENT_DESCRIPTION: NCI tumour cell line growth inhibition, 48 h
METRIC: TGI

Could you tell me which TGI is on file for N[C@H](CCC(=O)N[C@@H](Cc1c[nH]c2ccccc12)C(=O)O)C(=O)O ?
> 100 µM

Could you tell me which TGI is on file for O=C1NCC(NC(=O)C(F)(F)F)c2c(Br)sc(Br)c21 (stereo not drawn) ?
> 100 µM

Could you tell me which TGI is on file for CC(C)[C@H](O)C(=O)N[C@@H](C)C(=O)N[C@@H]1C(=O)N(C)CCc2ccccc21 ?
> 100 µM

---

TGI: recorded values
# Test system: NCI-H23 lung
# EXPERIMENT_DESCRIPTION: NCI tumour cell line growth inhibition, 48 h

// solved cases for TGI follow
Could you tell me which TGI is on file for CC(C)[C@H](O)C(=O)N[C@@H](C)C(=O)N[C@@H]1C(=O)N(C)CCc2ccccc21 ?
> 100 µM

Could you tell me which TGI is on file for COC(=O)/C(=N/O)C(C(=O)C=C(C)C)C(=O)C(=O)Nc1nc2ccc([N+](=O)[O-])cc2s1 (stereo not given) ?
83.2 µM

Could you tell me which TGI is on file for COC(=O)CCc1cc(OC)c2c(c1)[C@H](C(=O)OC)[C@@H](c1ccc(O)c(OC)c1)O2 ?
> 100 µM

Could you tell me which TGI is on file for NC(CC1=CS(=O)(=O)c2ccc(Cl)cc21)C(=O)O (stereo not given) ?
> 100 µM

Could you tell me which TGI is on file for CC1=NN(C(=O)CC(=O)Nc2ccccc2F)C(=O)C1N=Nc1ccccc1[N+](=O)[O-] (stereo not given) ?
> 100 µM

Could you tell me which TGI is on file for Cc1cc(N/N=C/c2ccccn2)nc2ccccc12 ?
22.2 µM

Moving on to the next molecule.
Could you tell me which TGI is on file for O=C(Nc1cc(Nc2ncccc2-c2ncnc3nc[nH]c23)ccc1F)c1cc(C(F)(F)F)cc(C(F)(F)F)c1 ?
> 10 µM
